Target: CDC25B (Homo sapiens, UniProt P30305)
Construct: Catalytic domain of CDC25B (aa 378-566) was expressed and produced in E. coli into a GST fusion protein; GST
Assay: CDC25B enzyme assay
Settings: catalytic domain of CDC25B (aa 378-566) GST fusion, 20 μm FDP, 1 hour at room temperature, fluorescence
Experimental: Catalytic domain of CDC25B (aa 378-566) was expressed and produced in E. coli into a GST fusion protein, which was used as zymogen. Enzyme assay was carried out on a 96-well plate, with the final reaction volume per well adjusted to 200 μL. […] After 1 hour of culturing, fluorescence resultant from the enzymatic reaction was measured at 485 nm (excitation) and 538 nm (emission). […]
endpoint.name: IC50 (nM)

>>> val("CCCOc1ccc(-c2nn(-c3ccccc3)cc2/C=C2\\SC(=O)NC2=O)cc1C(C)C")
2240
>>> val("CN1C(=O)S/C(=C\\c2cn(-c3ccccc3)nc2-c2cccc([N+](=O)[O-])c2)C1=O")
8280
>>> val("CCCOc1c(C(C)C)cc(-c2nn(-c3ccccc3)cc2/C=C2\\SC(=O)NC2=O)cc1C(C)C")
1090
>>> val("CCN1C(=O)S/C(=C\\c2cn(-c3ccccc3)nc2-c2cc(Br)c(OCC3CC3)c(Br)c2)C1=O")
2350
>>> val("CCCOc1cc(OCCC)cc(-c2nn(-c3ccccc3)cc2/C=C2\\SC(=O)NC2=O)c1")
1860
>>> val("CCCOc1ccc(-c2nn(-c3ccccc3)cc2/C=C2\\SC(=O)NC2=O)cc1Br")
2810

[a] CCCOc1ccc(-c2nn(-c3ccccc3)cc2/C=C2\SC(=O)N(CCC)C2=O)cc1Br
[b] CCOc1c(Br)cc(-c2nn(-c3ccccc3)cc2/C=C2\SC(=O)NC2=O)cc1Br
[c] CCOc1c(Cl)cccc1-c1nn(-c2ccccc2)cc1/C=C1\SC(=O)NC1=O
[d] CCN1C(=O)S/C(=C\c2cn(-c3ccccc3)nc2-c2ccccc2Br)C1=O
[e] CCCOc1ccc(-c2nn(-c3ccccc3)cc2/C=C2\SC(=O)NC2=O)cc1I
Please put the entries in order of rising IC50. A complete answer lists every label in the requested sequence.
e, b, a, c, d

[P] C#CCOc1ccc(-c2nn(-c3ccccc3)cc2/C=C2\SC(=O)NC2=O)cc1Br
[Q] CCOc1c(Br)cc(-c2nn(-c3ccccc3)cc2/C=C2\SC(=O)N(CC)C2=O)cc1Br
[R] CCCN1C(=O)S/C(=C\c2cn(-c3ccccc3)nc2-c2ccc(OCC)c(I)c2)C1=O
Please put the entries in order of rising IC50. A complete answer lists every label in the requested sequence.
Q, P, R

----------
Target: CDC25B (Homo sapiens)
Construct: Catalytic domain of CDC25B (aa 378-566) was expressed and produced in E. coli into a GST fusion protein; GST
Sequence (P30305 378-566 isoform P30305-2): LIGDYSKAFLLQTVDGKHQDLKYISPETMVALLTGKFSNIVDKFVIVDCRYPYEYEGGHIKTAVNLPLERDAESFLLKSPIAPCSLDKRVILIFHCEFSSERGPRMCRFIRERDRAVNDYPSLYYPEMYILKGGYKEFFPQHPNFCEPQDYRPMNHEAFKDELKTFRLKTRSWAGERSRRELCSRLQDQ
Assay: CDC25B enzyme assay
Conditions: catalytic domain of CDC25B (aa 378-566) GST fusion, 20 μm FDP, 1 hour at room temperature, fluorescence
endpoint.name: IC50 (µM)

>>> val("CCOc1c(Cl)cccc1-c1nn(-c2ccccc2)cc1/C=C1\\SC(=O)N(CC)C1=O [Compound 69]")
7.2

[1] CCN1C(=O)SC(=Cc2cn(-c3ccccc3)nc2-c2ccccc2Cl)C1=O [Compound 2]
[2] CC(C)Oc1cc(OC(C)C)cc(-c2nn(-c3ccccc3)cc2/C=C2\SC(=O)NC2=O)c1 [Compound 30]
Lab notebook, comparison: 1 versus 2 , higher IC50 goes to which? Please respond with the label that marks your chosen entry.
1
(1: 11.4 µM, 2: 5.74 µM)

[a] C=CCN1C(=O)S/C(=C\c2cn(-c3ccccc3)nc2-c2cc(Br)c(OC(F)F)c(Br)c2)C1=O [Compound 182]
[b] CCOc1ccc(-c2nn(-c3ccccc3)cc2/C=C2\SC(=O)N(CC)C2=O)cc1I [Compound 117]
Looking only at measured IC50, which entry is lower, a or b ? Please respond with the label that marks your chosen entry.
b
